measured-on: fully phosphorylated, mouse aERK2 enzyme (Mus musculus (Mouse), UniProt P63085)
Sequence (P63085 whole entry): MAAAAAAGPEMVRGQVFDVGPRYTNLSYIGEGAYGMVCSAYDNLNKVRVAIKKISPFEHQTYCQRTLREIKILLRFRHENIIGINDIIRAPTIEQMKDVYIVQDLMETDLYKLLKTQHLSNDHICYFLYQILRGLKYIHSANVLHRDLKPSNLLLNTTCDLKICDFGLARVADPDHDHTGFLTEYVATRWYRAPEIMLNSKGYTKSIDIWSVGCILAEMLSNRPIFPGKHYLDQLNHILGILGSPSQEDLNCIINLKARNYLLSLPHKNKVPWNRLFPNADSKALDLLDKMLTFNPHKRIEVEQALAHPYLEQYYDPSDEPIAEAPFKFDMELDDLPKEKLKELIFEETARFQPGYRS
protocol-summary: Active ERK2 (aERK) IMAP-FP assay, condition 2
Assay type: biochemical
run-conditions: active ERK2; read-out: aErk2 Ic50
log10 of IC50 by entry:
Annotation: log10 of IC50, nM basis.

Answered examples (3):
[
  {
    "query-smiles": "COc1cccc(F)c1CN1C[C@H](NC(=O)c2ccc3[nH]nc(-c4ccc5nc(C)sc5c4)c3c2)CC[C@H]1C(=O)N1CC(F)(F)C1",
    "recorded-value": 1.68
  },
  {
    "query-smiles": "[2H]C([2H])([2H])Oc1cccc(F)c1CN1C[C@H](NC(=O)c2ccc3[nH]nc(-c4ccc5nc(C)sc5c4)c3c2)CC[C@H]1C(=O)N1CCN(C(=O)OC(C)(C)C)CC1",
    "recorded-value": 1.86
  },
  {
    "query-smiles": "Cc1cc(-c2n[nH]c3ccc(C(=O)N[C@@H]4CC[C@@H](C(=O)N(C)C)N(Cc5cccs5)C4)cc23)ccn1",
    "recorded-value": 1.16
  }
]

Exercise: # get_value(readout= log10 of IC50, system= fully phosphorylated, mouse aERK2 enzyme (Mus musculus (Mouse), UniProt P63085)) for `COc1cccc(F)c1CN1C[C@H](NC(=O)c2ccc3[nH]nc(-c4ccncc4)c3c2)CC[C@H]1C(=O)N(C)C`
Solution: 1.26

Exercise: # get_value(readout= log10 of IC50, system= fully phosphorylated, mouse aERK2 enzyme (Mus musculus (Mouse), UniProt P63085)) for `CCNC(=O)[C@@H]1CC[C@@H](NC(=O)c2ccc3[nH]nc(-c4ccncc4)c3c2)CN1Cc1ccccc1`
Solution: 1.68

###

measured-on: fully phosphorylated, active Mouse ERK2 protein (Mus musculus (Mouse), UniProt P63085)
Sequence (P63085 whole entry): as the sequence (P63085 whole entry) above
log10(IC50) by entry:
Annotation: log10 of IC50, nM basis.

[
  {
    "compound": "O=C(NC1CCCN(Cc2ccccc2F)C1)c1ccc2[nH]nc(-c3ccc4c(c3)CCO4)c2c1 (centres unmarked)",
    "log10(IC50)": 2.45
  }
]

Exercise: // query log10(IC50) value for entry `CN1C[C@@H](Cc2c(F)cccc2F)C[C@@H](NC(=O)c2ccc3[nH]nc(-c4ccc5nonc5c4)c3c2)C1`
Solution: 0.95

###

pKd by entry:
measured-on: ERK protein (Mus musculus, UniProt P63085)
Sequence (P63085 2-358 limits assumed): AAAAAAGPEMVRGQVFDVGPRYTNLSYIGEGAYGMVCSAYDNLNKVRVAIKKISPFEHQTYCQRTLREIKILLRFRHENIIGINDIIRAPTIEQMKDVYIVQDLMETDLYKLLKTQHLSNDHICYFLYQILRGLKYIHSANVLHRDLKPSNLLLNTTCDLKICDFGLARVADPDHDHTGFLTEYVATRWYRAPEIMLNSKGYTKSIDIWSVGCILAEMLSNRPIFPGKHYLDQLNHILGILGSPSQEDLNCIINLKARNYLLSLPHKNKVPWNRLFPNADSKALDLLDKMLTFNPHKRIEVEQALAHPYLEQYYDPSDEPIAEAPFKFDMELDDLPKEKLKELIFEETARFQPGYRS
protocol-summary: TdF (Temperature Dependence Fluorescence, thermal shift) assay for ERK
Format: binding
run-conditions: 3 μM ERK protein, uncertainty estimated ±50%, read-out: Kd TdF
# log scale: pKd equals minus log10 of the concentration in mol/L

Answered examples (4):
[
  {
    "query-smiles": "COc1cccc(F)c1CN1CCC[C@@H](NC(=O)c2ccc3[nH]nc(-c4ccc5nc(C)sc5c4)c3c2)C1",
    "pKd": 10.00
  },
  {
    "query-smiles": "Cc1cc(-c2n[nH]c3ccc(C(=O)N[C@@H]4CCCN(Cc5ccccc5Cl)C4)cc23)ccn1",
    "pKd": 9.70
  },
  {
    "query-smiles": "O=C(N[C@@H]1CCCN(Cc2ccncc2)C1)c1ccc2[nH]nc(-c3ccc4c(c3)CCO4)c2c1",
    "pKd": 7.12
  },
  {
    "query-smiles": "Cc1cc(-c2n[nH]c3ccc(C(=O)N[C@@H]4CCCN(CC(=O)c5ccccc5F)C4)cc23)ccn1",
    "pKd": 8.62
  }
]

Then this molecule:
Exercise: // query pKd value for entry `O=C(N[C@H]1CCCN(Cc2ccccc2)C1)c1ccc2[nH]nc(-c3ccncc3)c2c1`
Solution: 6.93

These measurements were taken from patent US8999957B2.
